Cited source: paper PMC10397247

# Tgt: T1, 4H4033-AA
# T1 chain: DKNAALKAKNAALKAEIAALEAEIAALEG
# Method: two-hybrid library CCmax;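 also: natural log of median RNA to DNA barcode read ratio; higher means stronger binding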
# Conditions Used: mean of both orientations

{"Binder": "DKIAALEAENAALEAKIAALEAENAALEG [4H2211-AA]", "interaction score": -1.42}
{"Binder": "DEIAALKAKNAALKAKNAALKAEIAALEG [4H1017-AA]", "interaction score": -2.3}
{"Binder": "DENAALEAENAALEAKIAALKAKIAALKG [4H1198-AA]", "interaction score": 2.18}
{"Binder": "DKIAALKAEIAALEAKIAALKAKNAALKG [4H2608-AA]", "interaction score": -0.845}
{"Binder": "DENAALEAEIAALEAKNAALKAEIAALKG [4H1082-AA]", "interaction score": -0.637}
{"Binder": "DKIAALEAKNAALKAKIAALEAKNAALKG [4H2536-AA]", "interaction score": -1.47}
{"Binder": "DKNAALKAEIAALEAKIAALKAEIAALEG [4H3625-AA]", "interaction score": -0.401}
